TEST TARGET: HPK1 kinase (Homo sapiens)
Sequence (Q92918 whole entry): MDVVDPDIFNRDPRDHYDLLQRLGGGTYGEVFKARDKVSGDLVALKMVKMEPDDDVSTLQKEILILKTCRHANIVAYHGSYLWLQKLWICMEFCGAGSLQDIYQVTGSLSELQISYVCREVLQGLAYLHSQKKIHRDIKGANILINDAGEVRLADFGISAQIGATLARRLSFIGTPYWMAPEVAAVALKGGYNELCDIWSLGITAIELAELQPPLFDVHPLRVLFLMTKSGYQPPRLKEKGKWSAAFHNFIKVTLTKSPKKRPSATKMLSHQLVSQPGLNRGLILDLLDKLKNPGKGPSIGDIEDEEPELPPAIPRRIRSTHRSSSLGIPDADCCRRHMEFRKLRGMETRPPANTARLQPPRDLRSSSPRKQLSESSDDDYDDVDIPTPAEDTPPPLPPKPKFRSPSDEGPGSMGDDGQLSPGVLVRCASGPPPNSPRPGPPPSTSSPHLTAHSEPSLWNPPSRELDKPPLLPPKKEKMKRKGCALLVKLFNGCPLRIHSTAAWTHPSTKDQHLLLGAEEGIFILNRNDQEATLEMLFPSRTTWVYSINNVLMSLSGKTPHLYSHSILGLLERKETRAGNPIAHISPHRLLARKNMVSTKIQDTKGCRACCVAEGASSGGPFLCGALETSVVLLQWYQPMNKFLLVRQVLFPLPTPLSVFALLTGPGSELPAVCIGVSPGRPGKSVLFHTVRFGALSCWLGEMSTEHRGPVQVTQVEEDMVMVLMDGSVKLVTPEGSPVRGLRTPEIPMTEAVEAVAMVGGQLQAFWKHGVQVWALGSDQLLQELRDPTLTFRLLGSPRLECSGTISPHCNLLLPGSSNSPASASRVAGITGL
MEASUREMENT DESCRIPTION: In vitro HPK1 kinase inhibition assay (Caliper mobility shift assay)
// reported IC50 per item
Provide a numeric answer, followed by its unit.

Solved entries (count: 4):
INSERT INTO measurements (molecule, assay_result) VALUES
  ('Cc1cc(C)c2c(c1)/C(=N/Nc1ccc(C(=O)N3CCC[C@@H]3C)cc1)C(=O)N2 [V030-2005]', '9.49 µM'),
  ('O=C1CCc2cc(NC(=O)c3n[nH]c4ccccc34)ccc2N1 [M074-2865]', '2.93 µM'),
  ('CCCC[C@@H](CC)CNC(=O)c1ccc(N/N=C2\C(=O)Nc3ccccc32)cc1 [V014-4726]', '14.3 µM'),
  ('Cc1cccc(NC(=O)c2n[nH]c3ccccc23)c1 [8016-1815]', '7.55 µM');

query: Read the entry O=C1Nc2ccc(Cl)cc2/C1=N/NC(=O)c1cc(Br)ccc1O [2395-0114] and write its reported IC50.
result: 9.59 µM
